Target: human HER2 (Homo sapiens, UniProt P04626)
Construct: human HER2 amino acids 679-1255; host or cells: Sf9 insect cells (baculovirus)
Sequence (P04626 679-1255): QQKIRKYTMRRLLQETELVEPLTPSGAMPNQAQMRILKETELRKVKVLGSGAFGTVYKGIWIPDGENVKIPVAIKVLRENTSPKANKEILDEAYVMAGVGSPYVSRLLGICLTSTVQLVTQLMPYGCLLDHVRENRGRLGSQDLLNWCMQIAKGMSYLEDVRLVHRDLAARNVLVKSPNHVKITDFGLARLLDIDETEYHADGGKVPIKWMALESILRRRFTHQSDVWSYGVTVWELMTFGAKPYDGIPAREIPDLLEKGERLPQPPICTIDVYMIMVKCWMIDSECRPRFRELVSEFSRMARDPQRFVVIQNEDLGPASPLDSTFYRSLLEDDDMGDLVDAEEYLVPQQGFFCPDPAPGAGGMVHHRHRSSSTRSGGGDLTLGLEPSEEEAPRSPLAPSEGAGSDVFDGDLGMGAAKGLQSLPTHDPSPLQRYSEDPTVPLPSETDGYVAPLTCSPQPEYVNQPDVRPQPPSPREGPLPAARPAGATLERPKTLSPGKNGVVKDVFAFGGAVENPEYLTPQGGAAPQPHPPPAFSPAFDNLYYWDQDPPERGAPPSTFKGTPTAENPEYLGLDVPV
Test: HER2 enzymatic activity assay
Type: biochemical
Settings: 1 μM ATP; read-out: HER2/ErbB IC50
pIC50: −log10 of the molar value.
The following compounds are listed with their measured pIC50 values.

Consider the reported pIC50 for these compounds:
[
  {
    "COMPOUND": "Cc1cc2c(F)c(Oc3ncnc4cc(OCCCN5CCCC5)c(OCCCCCCC(=O)NO)cc34)ccc2[nH]1 [Compound 17]",
    "STUDY TARGET": "human HER2 (Homo sapiens, UniProt P04626)",
    "VALUE OBSERVED": "6.00 to 7.00"
  },
  {
    "COMPOUND": "COc1cc2c(Oc3ccc4[nH]c(C)cc4c3F)ncnc2cc1OCCCCCC(=O)NO [Compound 10]",
    "STUDY TARGET": "human HER2 (Homo sapiens, UniProt P04626)",
    "VALUE OBSERVED": "6.00 to 7.00"
  },
  {
    "COMPOUND": "COc1cc2c(Nc3ccc4[nH]c(C)cc4c3F)ncnc2cc1OCCCCCC(=O)NO [Compound 13]",
    "STUDY TARGET": "human HER2 (Homo sapiens, UniProt P04626)",
    "VALUE OBSERVED": "> 7.00"
  }
]

Turning to the following compound.
q: # get_value(readout='pIC50', item= COc1cc2ncnc(Nc3ccc4occc4c3)c2cc1OCCCCCCC(=O)NO [Compound 2] )
a: > 7.00

----------
Target: human EGFR (Homo sapiens, UniProt P00533)
Construct: human EGFR (His672-Ala1210)
Sequence (P00533 672-1210): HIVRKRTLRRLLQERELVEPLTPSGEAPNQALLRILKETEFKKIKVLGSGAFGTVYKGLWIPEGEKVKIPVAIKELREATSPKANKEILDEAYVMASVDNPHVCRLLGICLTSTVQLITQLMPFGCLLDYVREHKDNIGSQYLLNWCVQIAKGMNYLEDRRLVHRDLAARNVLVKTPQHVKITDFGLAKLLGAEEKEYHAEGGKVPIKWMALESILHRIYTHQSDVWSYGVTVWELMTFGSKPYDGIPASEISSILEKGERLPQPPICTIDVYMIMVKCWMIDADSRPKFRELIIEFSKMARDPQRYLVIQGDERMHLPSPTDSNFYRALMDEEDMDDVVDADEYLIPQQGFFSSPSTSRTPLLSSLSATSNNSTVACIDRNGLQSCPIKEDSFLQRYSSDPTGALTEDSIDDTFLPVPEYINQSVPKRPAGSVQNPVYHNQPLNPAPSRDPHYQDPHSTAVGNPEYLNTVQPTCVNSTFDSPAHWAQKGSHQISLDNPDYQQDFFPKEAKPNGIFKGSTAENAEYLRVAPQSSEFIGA
Assay: EGFR kinase assay (HTScan EGF Receptor Kinase Assay Kit, DELFIA)
Details: 200 μM ATP
pIC50: −log10 of the molar value.
PROPERTY: pIC50

[
  {
    "COMPOUND": "Cc1cc2c(F)c(Nc3ncnc4cc(OCCCN5CCCC5)c(OCCCCCCC(=O)NO)cc34)ccc2[nH]1 [Compound 20]",
    "PROPERTY": "pIC50",
    "VALUE OBSERVED": "5.00 to 6.00"
  },
  {
    "COMPOUND": "Cc1cc2c(F)c(Oc3ncnc4cc(OCCCN5CCCC5)c(OCCCCCC(=O)NO)cc34)ccc2[nH]1 [Compound 16]",
    "PROPERTY": "pIC50",
    "VALUE OBSERVED": "5.00 to 6.00"
  }
]

Turning to the following compound.
q: # get_value(readout='pIC50', item= Cc1cc2c(F)c(Oc3ncnc4cc(OCCCN5CCCC5)c(OCCCCCCC(=O)NO)cc34)ccc2[nH]1 [Compound 17] )
a: 5.00 to 6.00

----------
Target: human HER2 (Homo sapiens)
Construct: human HER2 amino acids 679-1255; host or cells: Sf9 insect cells (baculovirus)
Experiment: HER2 enzymatic activity assay
Format: biochemical
pIC50: −log10 of the molar value.
PROPERTY: pIC50

q: # get_value(readout='pIC50', item= COc1cc2c(Oc3ccc4[nH]c(C)cc4c3F)ncnc2cc1OCCCCCCC(=O)NO [Compound 11] )
a: 5.00 to 6.00

----------
Tested on: HDAC
Test: HDAC fluorimetric assay kit (HeLa nuclear extract)
Format: biochemical
Method: (b) An In Vitro Assay which Determines the Ability of a Test Compound to Inhibit HDAC Enzymatic Activity. HDAC inhibitors were screened using an HDAC fluorimetric assay kit (AK-500, Biomol, Plymouth Meeting, Pa.). […] Fluorescence was measured on a WALLAC Victor 2 plate reader and reported as relative fluorescence units (RFU). Data were plotted using GraphPad Prism (v4.0a) and IC50's calculated using a sigmoidal dose response curve fitting algorithm. […]
pIC50: −log10 of the molar value.
The following compounds are listed with their measured pIC50 values.

[
  {
    "MOLECULE": "COc1cc2c(Oc3ccc4[nH]c(C)cc4c3F)ncnc2cc1OCCCCCCC(=O)NO",
    "pIC50": "6.00 to 7.00"
  },
  {
    "MOLECULE": "COc1cc2c(Nc3ccc4[nH]c(C)cc4c3F)ncnc2cc1OCCCCC(=O)NO",
    "pIC50": "6.00 to 7.00"
  },
  {
    "MOLECULE": "Cc1cc2c(F)c(Oc3ncnc4cc(OCCCN5CCCC5)c(OCCCCCCC(=O)NO)cc34)ccc2[nH]1",
    "pIC50": "> 7.00"
  },
  {
    "MOLECULE": "Cc1cc2c(F)c(Nc3ncnc4cc(OCCCN5CCCC5)c(OCCCCC(=O)NO)cc34)ccc2[nH]1",
    "pIC50": "6.00 to 7.00"
  }
]

q: Item COc1cc2c(Nc3ccc4occc4c3)ncnc2cc1OCCCCCCC(=O)NO with HDAC - pIC50?
a: > 7.00

q: Next compound: COc1cc2c(Nc3ccc4[nH]c(C)cc4c3F)ncnc2cc1OCCCCCCC(=O)NO
a: > 7.00

q: Next compound: COc1cc2ncnc(Nc3ccc4occc4c3)c2cc1OCCCCCCC(=O)NO
a: > 7.00

Data origin, for the record: patent US20090076044A1
